- Tested on: Fibroblast
- EXPERIMENTAL DETAILS: Multiplex assay against human fibroblast
- Assay type: toxicity, cell-based
- TEST CONDITIONS: 12 h, 1 µM, compound concentration 1 uM, replicate 2
RECORDED ENDPOINT: Population Tubulin-Different-Phenotype (%)
Provide only the numeric value, understood in %.

Field: example entries. Status: answers known.
INSERT INTO measurements (compound, assay_value) VALUES
  ('CN1CCC(=C2c3ccccc3CC(=O)c3sccc32)CC1.O=C(O)/C=C/C(=O)O [KETOTIFEN FUMARATE]', 9),
  ('COc1cccc2cc(-c3nc([C@H]4CC[C@H](C(=O)O)CC4)n4ncnc(N)c34)[nH]c12', 31),
  ('O=C(Nc1ccc(-c2ccnc(Nc3ccc(N4CCOCC4)cc3)n2)cc1)[C@@H]1CCCN1', 10),
  ('Cl.Oc1ccc2c3c1O[C@H]1c4[nH]c5c(c4C[C@@]4(O)[C@@H](C2)N(CC2CC2)CC[C@]314)C[C@@]1(O)[C@H]2Cc3ccc(O)c4c3[C@@]1(CCN2CC1CC1)[C@H]5O4', 17),
  ('C=C1/C(=C\C=C2/CCC[C@]3(C)[C@@H]([C@H](C)/C=C/[C@H](C)C(C)C)CC[C@@H]23)C[C@@H](O)C[C@@H]1O', 9),
  ('Cc1cc(C)c(S(=O)(=O)N(Cc2ccc(-c3cccc(S(C)(=O)=O)c3)cc2)Cc2ccc(C(F)(F)F)o2)c(C)c1', 27);

// Input: CCOC(=O)c1c(C)[nH]c2ccc3c(c12)CN1CCc2cc(OC)ccc2C1O3 (centres undefined) . Output its Population Tubulin-Different-Phenotype (%) only.
62

# return recorded Population Tubulin-Different-Phenotype (%) for input Cl.O=c1c2cccn2c2ccccc2n1CCCN1CCC(c2ccc(Cl)cc2)CC1
30

Let me know recorded Population Tubulin-Different-Phenotype (%) for CCc1cccc(CC)c1NC(=O)c1nn(C)c2c1CCc1cnc(Nc3ccc(C(=O)NC4CCN(C)CC4)cc3OC(F)(F)F)nc1-2 , thanks.
18

State its Population Tubulin-Different-Phenotype (%) for this compound: COC(=N)c1nc2ccc3ncnc(Nc4ccc(OC)cc4F)c3c2s1
6

Output Population Tubulin-Different-Phenotype (%) of Cc1ccc(C(=O)Nc2cccc(C(F)(F)F)c2)cc1Nc1nc(-c2cccnc2)nc2c1cnn2C
14

Supply recorded Population Tubulin-Different-Phenotype (%) for CN(C)C(=O)C(CCN1CCC(O)(c2ccc(Cl)cc2)CC1)(c1ccccc1)c1ccccc1.Cl [LOPERAMIDE HYDROCHLORIDE] here.
65

Give reported Population Tubulin-Different-Phenotype (%) value for C=CCn1c(=O)c2cnc(Nc3ccc(N4CCN(C)CC4)cc3)nc2n1-c1cccc(C(C)(C)O)n1
19

Please look at this compound and report its Population Tubulin-Different-Phenotype (%): CN[C@@H]1C[C@H]2O[C@@](C)([C@@H]1OC)n1c3ccccc3c3c4c(c5c6ccccc6n2c5c31)C(=O)NC4
11
